assayMethodText: Toxicity liver stage against HepG2, at 10uM
Type: cell-based
Design: test concentration 10 uM, cell line HepG2-A16-CD81EGFP
particulars: human, HepG2-A16-CD81EGFP cells; read-out: INHIBITION
// reported cytotoxicity at 10 µM for each item listed
I only need the number, in %, no unit after it.

// solved cases for cytotoxicity at 10 µM follow
compound	observedProperty	value
O=C(c1ccnnc1)N1C[C@@H](OCC2CCOCC2)[C@H]2OCCC[C@H]21	cytotoxicity at 10 µM	-4.66
CC(C)c1noc(CCNC(=O)N2CCC(O)(C(F)(F)F)C2)n1 (stereo not drawn)	cytotoxicity at 10 µM	9.74
Cc1nc(CN2CCOCC3(CCN(c4ccccn4)C3)C2)cs1 (stereo not drawn)	cytotoxicity at 10 µM	12.8
CC(C)N(C)Cc1cnc2n1CCN(Cc1cccc(F)c1)C2	cytotoxicity at 10 µM	-2.92

compound O=C(COc1ccc2c(c1)OCC2O)NCc1ccco1 (stereo not drawn) , cytotoxicity at 10 µM observed: 0.878

The reported cytotoxicity at 10 µM of the compound `Cc1nc(N2CCN(C(=O)CC3CCCC3)CC2)c2cnn(C)c2n1` was 6.24

For reference, reported cytotoxicity at 10 µM for `Cc1n[nH]cc1CNC1(c2ccc(Br)cc2)CC1` stands at 13.9

// c1ccc(-c2nc(CNC3CCc4ncnn4C3)no2)cc1 (stereo not drawn) : cytotoxicity at 10 µM value = -4.16

Reported cytotoxicity at 10 µM of Cc1c(C(=O)NCC2CCN(Cc3ccco3)C2)[nH]c2ccccc12 (stereo not drawn) : 6.32

# cytotoxicity at 10 µM (compound: CN(C)CCn1c2c(ccc1=O)CC(NCc1cnn(C)c1)CC2 (stereo not drawn) ) is -105

The compound `CSC(C)(C)CNC(=O)NC1CCC1` showed cytotoxicity at 10 µM equal to -7.32

The compound identified as Cn1cc(N2CCCC(Nc3ccc4c(c3)CCC(=O)N4)C2=O)cn1 (stereo not drawn) registered its cytotoxicity at 10 µM at -1.56

The reported cytotoxicity at 10 µM of the compound Cc1cnc(CC2COCCN(Cc3nccn3C)C2)cn1 (stereo not drawn) was -2.25

In plain terms, `Cc1csc(N2CCCN(C(=O)c3c(C)oc(C)c3C)CC2)n1` has a documented cytotoxicity at 10 µM of 3.75

Recorded result, `O=C(C1CCOCC1)N1CC[C@H]2C[C@@H](c3ccncn3)O[C@@H]2C1` , cytotoxicity at 10 µM: -0.748

// `Cc1noc(C)c1CN(C)c1nccc(C(F)(F)F)n1` : cytotoxicity at 10 µM value = -4.73

Summary for this compound, `Oc1nnc(-c2cccs2)c2sc(N3CCCCC3)nc12` : cytotoxicity at 10 µM is 7.52

cytotoxicity at 10 µM reported for this compound CCC(NCc1cccc(Cl)c1)c1ccccc1OCC(=O)NC (stereo not drawn) : -2.65

Note to self: cytotoxicity at 10 µM recorded for CC(C(=O)N(C)Cc1ccc(Br)o1)n1cncn1 (stereo not drawn) was 5.87

Value of measured cytotoxicity at 10 µM for the entry `Cn1c(Cn2ccnc2)nnc1C1CCN(C(=O)c2cccnc2)CC1` : -96.4

For this compound ( `COc1cc(C(=O)N2CCCS2(=O)=O)ccc1OC(C)C` ), measured cytotoxicity at 10 µM is -17.6

The reported cytotoxicity at 10 µM of the compound `Cc1cc(-c2cc(S(=O)(=O)N3C[C@H](C4CC4)[C@@H](N)C3)c(C)s2)[nH]n1` was 2.47

Per the record, `Cc1cc(NC(=O)CN2CCC(N3CCNC3=O)CC2)on1` has cytotoxicity at 10 µM of 2.99

Summary for this compound, Cc1cccn2cc(CN3CCCC(c4noc(C5CC5)n4)C3)nc12 (stereo not drawn) : cytotoxicity at 10 µM is 2.29

According to the records, this compound `Cc1nc(CNC(=O)CCN2CCN(c3ccccc3)CC2)oc1C` displays cytotoxicity at 10 µM of -4.04
